assay: small-molecule binders of probe aNOTCH2, primary screen, biochemical, small-molecule microarray, 635/667 nm fluorescence (AID 1121); conditions: higher = more signal;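 further: score merges feature fluorescence read at 667 nm with its signal to noise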
composite z-score listing for selected compounds.

{"compound": "C=C(CCCC)/C(=C/C[C@@H](OC(C)=O)c1ccc(CO)o1)c1cc(C(=O)OC)ccc1OC", "composite z-score": -0.0741}
{"compound": "COc1ccc(C(O)C2C=CC3C(=O)N(Cc4ccccc4)C(=O)C3N2n2cnnc2)c2ccccc12 (stereo not drawn)", "composite z-score": -0.125}
{"compound": "C=CC[C@@]1(C(=O)O)N=C(c2ccc(OCCCO)cc2)O[C@@H]1c1ccccc1", "composite z-score": 0.247}
{"compound": "CCCCN1CC=CC23O[C@@H]4/C=C\\CCC(C)OC(=O)C4[C@H]2C(=O)N(CCCCCCO)[C@@H]3C1=O (stereo partly drawn)", "composite z-score": -0.228}
{"compound": "COC1(C)CN(Cc2ccccc2Br)[C@H](/C=C/c2ccccc2)[C@H](Cc2ccccc2)O1 (stereo partly drawn)", "composite z-score": -0.198}
{"compound": "CN(C)CCCN1C(=O)[C@@]2(c3ccc([N+](=O)[O-])cc3)CC(=O)N(CC34CC5CC(CC(C5)C3)C4)[C@@H]2c2ccc(CO)cc21", "composite z-score": -0.0391}
{"compound": "CCOC(=O)C[C@H]1[C@H](OC(=O)c2ccc(-c3ccccc3)cc2)[C@@H](NC(=O)C2CCCCC2)c2cc(OCCCO)ccc2N1C(=O)c1ccccc1", "composite z-score": -0.152}
{"compound": "COC(=O)[C@]1(CCS(=O)(=O)c2ccccc2)N=C(c2ccc(OCCCO)cc2)O[C@@H]1c1ccccc1CN=[N+]=[N-]", "composite z-score": 0.062}

====

molecular target: E3 ubiquitin-protein ligase XIAP (Homo sapiens); test: XIAP binders, primary screen, biophysical, small-molecule microarray, fluorescence 635 nm (AID 1181); details: small-molecule microarray binding, higher = more signal;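 further: score merges 667 nm emission and signal to noise over triplicate slides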
Everything with composite z-score lower than 0.03 is FALSE; everything else, including exactly 0.03, is TRUE.

{"compound": "COCCOC(=O)N1C(=O)[C@@]2(c3cc(C#CC4(O)CCCCCC4)ccc31)[C@H](C(=O)N1CCCCCCC1)[C@H]1C(=O)O[C@H](c3ccccc3)[C@H](c3ccccc3)N1[C@@H]2c1ccc(OCCO)cc1", "cat": "TRUE"}
{"compound": "Cc1ccc(S[C@]2(C(=O)O)CC(=O)N(Cc3ccccc3Cl)[C@@H]2c2ccc(CO)cc2)cc1", "cat": "FALSE"}
{"compound": "COCCOC(=O)N1C(=O)[C@@]2(c3cc(C#CCC(C(=O)OC)C(=O)OC)ccc31)[C@H](c1ccc(OCCO)cc1)N1[C@H](c3ccccc3)[C@H](c3ccccc3)OC(=O)[C@H]1[C@@H]2C(=O)N1CCN(c2ncccn2)CC1", "cat": "FALSE"}
{"compound": "CCOC(=O)[C@H]1C/C=C/C[C@H](C(=O)OCC)C(=O)O[C@H]2[C@@H](OC)O[C@H](CO)[C@@H](OC(=O)Nc3ccc(OC)cc3)[C@@H]2OC1=O", "cat": "TRUE"}
{"compound": "COc1cc(OC)c(C(O)C2C=CC3C(=O)N(c4ccccc4)C(=O)C3N2Nc2ccc(C#N)cc2)cc1Br (centres undefined)", "cat": "FALSE"}
{"compound": "C=CC[C@]1(C(=O)N(C)C)N=C(c2ccc(OCCCO)cc2)O[C@H]1c1ccccc1N=[N+]=[N-]", "cat": "TRUE"}
{"compound": "[N-]=[N+]=Nc1ccccc1C[C@]1(C(=O)NCc2ccccc2)N=C(c2ccc(OCCCO)cc2)O[C@H]1c1ccccc1", "cat": "TRUE"}
{"compound": "C[C@]1(C(=O)NC2CC2)c2ccccc2C(=O)N(Cc2ccc(OC(F)(F)F)cc2)[C@H]1c1ccc(CO)cc1", "cat": "FALSE"}
{"compound": "CC(C)N1CC=CC23O[C@@H]4C=CCCOC(=O)C4[C@H]2C(=O)N(CCO)[C@@H]3C1=O (some centres undefined)", "cat": "FALSE"}
{"compound": "O=C1O[C@@H](c2ccccc2)[C@@H](c2ccccc2)N2[C@@H](c3ccccc3OCCO)[C@]3(C(=O)Nc4ccc(C#CCCO)cc43)[C@@H](C(=O)Nc3nc4ccccc4s3)[C@H]12", "cat": "FALSE"}
{"compound": "C[C@H]1C2=C3C(CC[C@H]4C(OCc5ccc(F)cc5C(F)(F)F)OC[C@](C)([C@@H]34)N(C(=O)OC(C)(C)C)C2)C(CO)C1CO (some centres undefined)", "cat": "TRUE"}
{"compound": "COCCCNC(=O)[C@]1(Cc2ccccc2N=[N+]=[N-])N=C(c2ccc(OCCCO)cc2)O[C@@H]1c1ccccc1N=[N+]=[N-]", "cat": "FALSE"}
{"compound": "O=C(O)[C@H]1C[C@H]2C(=O)N3CCC[C@H]3C(=O)N2[C@H]1c1cccc(OCCO)c1", "cat": "FALSE"}
{"compound": "COc1ccc([Si](C)(C)[C@@H]2[C@@H](CC(=O)N3CCC[C@H]3CO)O[C@]3(C(=O)N(Cc4ccc(N5C(=O)c6cccc7cccc5c67)cc4)c4ccccc43)[C@H]2C)cc1", "cat": "FALSE"}
{"compound": "CCCC[C@@H]1C[C@H]1[C@@H](NC(=O)c1ccccc1)c1ccc(Cl)cc1", "cat": "FALSE"}
{"compound": "CCOC(=O)C[C@H]1[C@H](OC(=O)c2ccc(C(=O)c3ccccc3)cc2)[C@@H](NC(=O)c2ccc3ccccc3c2)c2cc(OCCCO)ccc2N1C(=O)c1ccccc1", "cat": "FALSE"}
{"compound": "CO[C@H]1O[C@H](CO)[C@@H](OC(=O)c2ccc(Br)cc2)[C@@H]2OC(=O)[C@@H](Cc3ccc4ccccc4c3)C/C=C/C[C@H](Cc3ccc4ccccc4c3)C(=O)O[C@@H]12", "cat": "TRUE"}
{"compound": "C=C(CCCC)C(=O)CC[C@@H](OC(=O)c1cccnc1)c1ccccc1OCCO", "cat": "TRUE"}
{"compound": "[N-]=[N+]=Nc1ccccc1[C@H]1OC(c2ccc(OCCCO)cc2)=N[C@@]1(CCS(=O)(=O)c1ccccc1)C(=O)N1CCCCC1", "cat": "FALSE"}
{"compound": "C=CCOC(=O)[C@H]1[C@@H]2C(=O)O[C@@H](c3ccccc3)[C@@H](c3ccccc3)N2[C@@H](c2ccc(OCCOC(=O)[C@H]3C[C@H]4C(=O)N[C@@H](Cc5ccccc5)C(=O)N4[C@H]3c3ccc(O)cc3)cc2)[C@]12C(=O)Nc1ccc(I)cc12", "cat": "TRUE"}
{"compound": "C=C(C(=O)CC[C@H](OC(=O)c1cccnc1)c1ccc(CO)o1)C(C)C", "cat": "FALSE"}
{"compound": "CCCC=C(CCC)[C@@H](NP(=O)(c1ccccc1)c1ccccc1)c1ccc(C(F)(F)F)cc1", "cat": "TRUE"}
{"compound": "C=C[C@@H](C)[C@H](OC(=O)Nc1ccc(SC)cc1)c1ccc(OCCO)cc1", "cat": "FALSE"}

====

z-score listing for selected molecules.
assay: basal RPMI8226 viability, no added stimulus, profiling panel, cell-based, calcein-AM fluorescence, 48 h, PK04 Diversity Set (AID 1166); conditions: RPMI8226 myeloma viability, higher = more signal;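 further: cells grown under basal conditions without added stimulus; test concentration not given here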
reportedProperty: z-score

{"molecule": "COc1cc2c(cc1OC)CN(C(=O)[C@H]1[C@@H]3C(=O)O[C@@H](c4ccccc4)[C@@H](c4ccccc4)N3[C@@H](c3ccc(OCCO)cc3)[C@]13C(=O)Nc1ccc(C#CCCO)cc13)CC2", "observedMeasurement": 0.77}
{"molecule": "CN(C)C(=O)[C@@]1(Cc2ccccc2N=[N+]=[N-])COC(c2ccc(OCCCO)cc2)=N1", "observedMeasurement": 0.192}
{"molecule": "NCCCCCCNC(=O)[C@H]1C[C@H]2C(=O)N[C@@H](Cc3ccccc3)C(=O)N2[C@H]1c1ccc(O)cc1", "observedMeasurement": 0.337}
{"molecule": "CN(C)CCCNC(=O)[C@@H]1c2ccccc2C(=O)N(Cc2ccc(OC(F)(F)F)cc2)[C@H]1c1ccc(CO)cc1", "observedMeasurement": -2.39}
{"molecule": "CC(C)(C)OC(=O)CC[C@@]1(C(=O)O)N=C(c2ccc(OCCCO)cc2)O[C@@H]1c1ccccc1CN=[N+]=[N-]", "observedMeasurement": 0.813}
{"molecule": "COc1ccc(CCNC(=O)[C@@]2(Sc3ccc(C)cc3)CC(=O)N(Cc3cc(C(F)(F)F)cc(C(F)(F)F)c3)[C@@H]2c2ccc(CO)cc2I)cc1", "observedMeasurement": -1.96}
{"molecule": "CN(C)CCCN1C(=O)[C@@]2(c3ccc([N+](=O)[O-])cc3)CC(=O)N(CC34CC5CC(CC(C5)C3)C4)[C@@H]2c2ccc(CO)cc21", "observedMeasurement": 0.621}
{"molecule": "C=CCN1C(=O)[C@@]2(CCC(=O)OC(C)(C)C)N=C(c3ccc(OCCCO)cc3)O[C@H]2c2ccccc21", "observedMeasurement": -3.97}
{"molecule": "Cc1ccc(S[C@]2(C(=O)NCCN3CCOCC3)CC(=O)N(Cc3ccccc3C(F)(F)F)[C@@H]2c2ccc(CO)cc2I)cc1", "observedMeasurement": -2.15}
{"molecule": "C=CCC(OC(C)=O)[C@@H]1[C@@H](N(Cc2cc3ccccc3o2)C(=O)c2ccc(C)cc2)c2cc(OCCCO)ccc2N1C(=O)Cc1ccc2ccccc2c1 (some centres undefined)", "observedMeasurement": -0.802}
{"molecule": "COc1cc(CO)cc(I)c1O[C@H]1C=C(C(=O)NCCO)C[C@@H](N(CC2CCCCC2)C(=O)c2ccc(C(F)(F)F)cc2)[C@@H]1O", "observedMeasurement": -0.189}
{"molecule": "CC(CO)N1C(=O)[C@@H]2C3C(=O)OCCC/C=C\\[C@H]3OC23C=CCN(Cn2nnc4ccccc42)C(=O)[C@@H]13 (some centres undefined)", "observedMeasurement": 0.285}
{"molecule": "C[C@]12C(=O)N(CCCCCCO)[C@@H]3C(=O)N(c4ccc(Cl)cc4)CC=CC31O[C@@H]1/C=C\\CCCOC(=O)C12 (some centres undefined)", "observedMeasurement": 0.0929}
{"molecule": "CCCC[C@@H]1C[C@H]1[C@@H](NC(=O)c1ccccc1)c1ccc(Cl)cc1", "observedMeasurement": -1.45}
